Where do these numbers come from? They come from patent US7329737.

- TARGET: hK1 (human tissue kallikrein 1), recombinant (human, UniProt P06870 25-262)
- EXPERIMENT DESCRIPTION: cell-based or functional assay
METRIC: IC50 (nM), inhibition of hK1 enzyme activity

BINDER | CENSORING OPERATOR | OBSERVED MEASUREMENT
M0112-D07 (Fab, V domains shown) VH: EVQLLESGGGLVQPGGSLRLSCAASGFTFSFYSMSWVRQAPGKGLEWVSRIRPSGGRTDYADSVKGRFTISRDNSKNTLYLQMNSLRAEDTAVYYCARDRLYYYGSGSYYYGAFDIWGQGTMVTVSS VL: DIQMTQSPSSLSASVGDRVTITCRASQTIRTYLNWYQQKPGIAPKFLIYDASNLQTGVPSRFSGSGSGTHFTLTISSLQPEDFGTYYCQQSYGGPPTFGRGTKIEIKR | > | 120
M0136-E10 (Fab, V domains shown) VH: EVQLLESGGGLVQPGGSLRLSCAASGFTFSPYNMAWVRQAPGKGLEWVSSIWPSGGRTRYADSVKGRFTISRDNSKNTLYLQMNSLRAEDTAVYYCAKGVRSSGLLERGRVYDAFDIWGQGTMVTVSS VL: DIQMTQSPGTLSLSPGERATLSCRASQSVTTFLAWYQRKPGQAPRLLIYGASSRAADIPDRFSGSGSGTDFTLTISRLEPEDLAVYYCQQYRFSPPTFGPGTTVDIRR | = | 22
